All figures here come from PubChem BioAssay (NCATS).

Target: Luciferin 4-monooxygenase (Photinus pyralis)
Test: Primary firefly luciferase (FLuc) qHTS assay for identification of artifact compounds. (AID 1845220); also: nearly all actives have a fitted effect of over 60% in size
Settings: purified firefly luciferase, luminescence, 5 min; series mostly up to 54.1 µM
Activity calls are given as the source filed them. Calls follow the shape of the dose curve; as a rule, active = well fitted inhibition curve with a large enough effect; inconclusive = small, poorly fitted or top-dose-only effect; inactive = flat fitted curve, though single readings scatter.
measured_parameter: activity change, negative = inhibition

>>> df
                                   molecule                            assayed_system  reported_value
0  CC1(C)C(=O)N2c3ccccc3C(O)(CC(C(=O)O)n3cnc4ccccc4c3=O)C2N1O (centres undefined)  Luciferin 4-monooxygenase (Photinus pyralis)        inactive
1  Cn1cc(CCn2cnc(-c3cnn(C)c3)c2-c2ccc(C#N)cc2)cn1  Luciferin 4-monooxygenase (Photinus pyralis)        inactive
2  COc1c2ccoc2nc2c(OC)c(O[C@@H]3O[C@@H](C)[C@H](O)[C@@H](O[C@@H]4O[C@H](CO)[C@@H](O)[C@H](O)[C@H]4O)[C@H]3OC(C)=O)ccc12  Luciferin 4-monooxygenase (Photinus pyralis)        inactive
3  C=C1CC23CC1CCC2C12OC(=O)C(C)(C(O)CC1O)C2C3C(=O)O (centres undefined)  Luciferin 4-monooxygenase (Photinus pyralis)        inactive
